# targetOrTestSystem: hTRPA1 (Homo sapiens, UniProt O75762)
# Sequence (O75762 whole entry): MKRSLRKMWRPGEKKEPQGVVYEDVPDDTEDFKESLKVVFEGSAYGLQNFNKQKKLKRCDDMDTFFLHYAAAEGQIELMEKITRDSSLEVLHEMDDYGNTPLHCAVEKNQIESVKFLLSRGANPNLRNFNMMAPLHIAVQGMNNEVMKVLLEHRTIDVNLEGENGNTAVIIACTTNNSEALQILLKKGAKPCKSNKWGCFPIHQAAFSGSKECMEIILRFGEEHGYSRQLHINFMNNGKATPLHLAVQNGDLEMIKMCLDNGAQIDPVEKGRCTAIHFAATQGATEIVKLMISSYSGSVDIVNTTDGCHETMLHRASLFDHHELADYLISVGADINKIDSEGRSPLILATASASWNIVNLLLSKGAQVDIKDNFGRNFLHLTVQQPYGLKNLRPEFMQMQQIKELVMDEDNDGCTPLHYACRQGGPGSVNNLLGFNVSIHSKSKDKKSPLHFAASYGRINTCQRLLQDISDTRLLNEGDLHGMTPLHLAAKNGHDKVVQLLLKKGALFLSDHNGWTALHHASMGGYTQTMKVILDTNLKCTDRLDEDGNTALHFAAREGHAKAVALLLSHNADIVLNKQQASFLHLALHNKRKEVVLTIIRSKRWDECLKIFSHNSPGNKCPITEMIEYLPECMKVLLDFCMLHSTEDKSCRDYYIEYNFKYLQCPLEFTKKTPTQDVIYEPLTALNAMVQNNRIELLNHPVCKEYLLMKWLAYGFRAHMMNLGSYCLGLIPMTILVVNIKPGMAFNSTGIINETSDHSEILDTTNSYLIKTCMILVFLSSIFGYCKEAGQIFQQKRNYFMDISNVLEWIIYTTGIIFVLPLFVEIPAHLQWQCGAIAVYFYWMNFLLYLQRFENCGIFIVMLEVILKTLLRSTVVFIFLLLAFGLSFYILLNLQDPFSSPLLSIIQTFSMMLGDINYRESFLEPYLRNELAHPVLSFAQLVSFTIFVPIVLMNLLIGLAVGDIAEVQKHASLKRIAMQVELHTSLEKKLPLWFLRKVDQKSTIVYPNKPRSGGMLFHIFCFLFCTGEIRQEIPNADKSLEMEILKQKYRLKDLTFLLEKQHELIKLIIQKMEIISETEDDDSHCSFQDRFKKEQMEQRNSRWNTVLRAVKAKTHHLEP
# assayDetails: Dose response calcium flux (FLIPR) assay, ChanTest hTRPA1-CHO stably transfected cell line, cinnamaldehyde agonist
# measurementParameters: CHO-K1 Tet-On hTRPA1 cells, 100 uM cinnamaldehyde agonist, 30 min preincubation
Counter-ions that a name gives are not always drawn.
Field: pIC50. Provide a value for each of the compounds that follow.
Numbers only, as −log10 of the molar value.

// solved cases for pIC50 follow
>>> print(df.to_string())
                                   compound  quantityname  valuemeasured
0  COc1ccc(C[C@@H]2CN(C[C@H](OC(=O)Nc3ccc(Cl)cc3)C(F)(F)F)CCO2)cn1 [Example 50]         pIC50           6.61
1  Cc1ccc(NC(=O)O[C@@H](CN2CCOC(c3ccc(F)c(F)c3)C2)C(F)(F)F)cc1 (stereo partly shown) [Example 37, hydrochloride]         pIC50           6.34
2  COc1cccc([C@@H]2CN(C[C@H](OC(=O)Nc3ccc(Cl)cc3)C(F)(F)F)CCO2)c1 [Example 14]         pIC50           7.44
3  COc1cccc(C[C@@H]2CN(C[C@H](OC(=O)Nc3ccc(Cl)cc3)C(F)(F)F)CCO2)n1 [Example 51]         pIC50           6.40
4  O=C(Nc1ccc(Cl)c(F)c1)O[C@@H](CN1CCO[C@@H](c2cccc(Cl)c2)C1)C(F)(F)F [Example 8, hydrochloride]         pIC50           6.22
5  COc1cccc(C2CN(C[C@H](OC(=O)Nc3ccc(Cl)cc3)C(F)(F)F)CCS2(=O)=O)c1 (stereo partly shown) [Example 17]         pIC50           6.41

Lab note: next compound to report on.
Data request: Would you mind telling me what pIC50 value was observed for O=C(Nc1ccc(Cl)cc1)O[C@@H](CN1CCOC(c2ccc(F)cc2)C1)C(F)(F)F (stereo partly shown) [Example 42, hydrochloride] ?
Data returned: 7.08

----------
Field: IC50. Provide a value for each of the molecules that follow.
# targetOrTestSystem: hTRPA1 (Homo sapiens, UniProt O75762)
# assayDetails: Dose response calcium flux (FLIPR) assay, ChanTest hTRPA1-CHO stably transfected cell line, cinnamaldehyde agonist
# measurementParameters: CHO-K1 Tet-On hTRPA1 cells, 100 uM cinnamaldehyde agonist, 30 min preincubation
Counter-ions that a name gives are not always drawn.
Answers are plain numbers, in nM.

// solved cases for IC50 follow
molecule	IC50, nM
O=C(Nc1ccc(Cl)c(F)c1)O[C@@H](CN1CCO[C@H](c2ccc(Cl)c(F)c2)C1)C(F)(F)F [Example 4, hydrochloride]	42.4
O=C(Nc1ccc(Cl)cc1)O[C@@H](CN1CCOC(c2cccc(Cl)c2)C1)C(F)(F)F (stereo partly shown) [Example 43, hydrochloride]	17.8
O=C(Nc1ccc(Cl)cc1)O[C@@H](CN1CCO[C@H](Cc2ccccc2)C1)C(F)(F)F [Example 9, hydrochloride]	121
O=C(Nc1ccc(Cl)cc1)O[C@@H](CN1CCOC(c2ccc(F)c(C(F)(F)F)c2)C1)C(F)(F)F (stereo partly shown) [Example 2, hydrochloride]	8.5
CC(C)c1nccc([C@H]2CN(C[C@H](OC(=O)Nc3ccc(Cl)c(F)c3)C(F)(F)F)CCO2)n1 (single isomer, unassigned) [Example 26, hydrochloride]	846
Cc1ccc(NC(=O)O[C@@H](CN2CCOC(c3ccc(C(F)(F)F)cc3)C2)C(F)(F)F)cc1Cl (stereo partly shown) [Example 33, hydrochloride]	1630

Lab note: each molecule below needs its IC50 filled in.
1. O=C(Nc1ccc(Cl)cc1)O[C@@H](CN1CCO[C@@H](Cc2ccccc2)C1)C(F)(F)F (single isomer, unassigned) [Example 10, hydrochloride]
2. O=C(C[C@@H](CN1CCO[C@@H](c2cccc(C(F)(F)F)c2)C1)C(F)(F)F)Nc1ccc(Cl)c(F)c1 [Example 40]
3. O=C(Nc1ccc(Cl)cc1)O[C@@H](CN1CCO[C@H](c2cccc(C(F)(F)F)c2)C1)C(F)(F)F [Example 11, hydrochloride]
4. O=C(Nc1ccc(Cl)cc1)O[C@@H](CN1CCO[C@H](Cc2cccs2)C1)C(F)(F)F [Example 49, hydrochloride]
5. O=C(Nc1ccc(Cl)nc1)O[C@@H](CN1CCOC(c2cccc(C(F)(F)F)c2)C1)C(F)(F)F (stereo partly shown) [Example 38, hydrochloride]
6. O=C(Nc1ccc(Cl)cc1)O[C@@H](CN1CCS(=O)(=O)[C@H](c2cccc(C(F)(F)F)c2)C1)C(F)(F)F [Example 18]
7. O=C(Nc1ccc(Cl)cc1)O[C@@H](CN1CCO[C@H](c2ccc(F)c(C(F)(F)F)c2)C1)C(F)(F)F [Example 1, hydrochloride]

Data returned:
1. 3580
2. 3060
3. 5.58
4. 115
5. 78
6. 42.5
7. 4.91

----------
Field: IC50. Provide a value for each of the compounds that follow.
# targetOrTestSystem: hTRPA1 (Homo sapiens, UniProt O75762)
# assayDetails: Dose response calcium flux (FLIPR) assay, ChanTest hTRPA1-CHO stably transfected cell line, cinnamaldehyde agonist
# measurementParameters: CHO-K1 Tet-On hTRPA1 cells, 100 uM cinnamaldehyde agonist, 30 min preincubation
Where a name gives a salt, the structure may show the parent alone.
One number for each entry, in nM.

Lab note: each compound below needs its IC50 filled in.
1. O=C(Nc1ccc(Cl)c(F)c1)O[C@@H](CN1CCS(=O)(=O)[C@@H](c2cccc(C(F)(F)F)c2)C1)C(F)(F)F (single isomer, unassigned) [Example 21]
2. O=C(Nc1ccc(Cl)c(F)c1)O[C@@H](CN1CCO[C@H](c2ccc(F)c(Cl)c2)C1)C(F)(F)F [Example 5, hydrochloride]
3. O=C(Nc1ccc(Cl)c(F)c1)O[C@@H](CN1CCO[C@H](c2ccc(F)c(C(F)(F)F)c2)C1)C(F)(F)F [Example 3, hydrochloride]
4. CN1CCN(C[C@H](OC(=O)Nc2ccc(Cl)cc2)C(F)(F)F)CC1c1ccccc1 (stereo partly drawn) [Example 27, hydrochloride]
5. O=C(Nc1ccc(Cl)cc1)O[C@@H](CN1CCS(=O)(=O)[C@@H](c2cccc(C(F)(F)F)c2)C1)C(F)(F)F (single isomer, unassigned) [Example 19]
6. O=C(Nc1ccc(Cl)c(F)c1)O[C@@H](CN1CCO[C@@H](c2ccc(C(F)(F)F)nc2)C1)C(F)(F)F (single isomer, unassigned) [Example 23, hydrochloride]

Data returned:
1. 1100
2. 30.7
3. 14.3
4. 2620
5. 191
6. 781

----------
# targetOrTestSystem: UniProt O75762
# assayDetails: Dose response calcium flux (FLIPR) assay, ChanTest hTRPA1-CHO stably transfected cell line, cinnamaldehyde agonist
# measurementParameters: CHO-K1 Tet-On hTRPA1 cells, 100 uM cinnamaldehyde agonist, 30 min preincubation
Counter-ions that a name gives are not always drawn.
Label 1 (yes) when IC50 < 200 nM; otherwise 0 (no).

compound	group
O=C(Nc1ccc(Cl)c(F)c1)O[C@@H](CN1CCS(=O)(=O)[C@H](c2cccc(C(F)(F)F)c2)C1)C(F)(F)F	1 (yes)

Data request: State whether 200 nM exceeds IC50 recorded for O=C(Nc1ccc(Cl)c(F)c1)O[C@@H](CN1CCO[C@@H](c2ccc(C(F)(F)F)cc2)C1)C(F)(F)F [Example 32, hydrochloride] .
Data returned: 0 (no)

Data request: State whether 200 nM exceeds IC50 recorded for CC(C)c1nccc([C@@H]2CN(C[C@H](OC(=O)Nc3ccc(Cl)c(F)c3)C(F)(F)F)CCO2)n1 [Example 25, hydrochloride] .
Data returned: 1 (yes)

Data request: State whether 200 nM exceeds IC50 recorded for `COc1cccc([C@@H]2CN(C[C@H](OC(=O)Nc3ccc(Cl)cc3)C(F)(F)F)CCS2(=O)=O)c1` .
Data returned: 1 (yes)

----------
Field: pIC50. Provide a value for each of the compounds that follow.
# targetOrTestSystem: hTRPA1 (Homo sapiens)
# assayDetails: Dose response calcium flux (FLIPR) assay, ChanTest hTRPA1-CHO stably transfected cell line, cinnamaldehyde agonist
# measurementParameters: CHO-K1 Tet-On hTRPA1 cells, 100 uM cinnamaldehyde agonist, 30 min preincubation
Counter-ions that a name gives are not always drawn.
Give bare numbers, as −log10 of the molar value.

                                   compound  quantityname  valuemeasured
0  O=C(C[C@@H](CN1CCO[C@H](c2cccc(C(F)(F)F)c2)C1)C(F)(F)F)Nc1ccc(Cl)c(F)c1         pIC50           7.13
1  O=C(Nc1ccc(Cl)c(F)c1)O[C@@H](CN1CCO[C@H](c2ccnc(C(F)(F)F)n2)C1)C(F)(F)F [Example 24, hydrochloride]         pIC50           7.15
2  O=C(Nc1ccc(Cl)c(F)c1)O[C@@H](CN1CCO[C@H](c2cccc(Cl)c2)C1)C(F)(F)F [Example 7, hydrochloride]         pIC50           7.33
3  O=C(Nc1ccc(Cl)cc1)OC(CN1CCOCC1)C(F)(F)F (stereo not drawn)         pIC50           5.67
4  O=C(Nc1ccc(Cl)c(F)c1)O[C@@H](CN1CCO[C@H](c2cccc(C(F)(F)F)c2)C1)C(F)(F)F [Example 13, hydrochloride]         pIC50           8.20
5  O=C(Nc1ccc(Cl)c(F)c1)O[C@@H](CN1CCO[C@H](c2ccc(C(F)(F)F)nc2)C1)C(F)(F)F         pIC50           7.19
6  O=C(Nc1ccc(Cl)cc1)O[C@@H](CN1CCOC(c2cc(Cl)cc(Cl)c2)C1)C(F)(F)F (stereo partly drawn) [Example 44, hydrochloride]         pIC50           7.99
7  O=C(Nc1ccc(Cl)cc1)O[C@@H](CN1CCO[C@@H](c2cccc(C(F)(F)F)c2)C1)C(F)(F)F [Example 12, hydrochloride]         pIC50           6.97

Lab note: next compound to report on.
Data request: Would you mind telling me what pIC50 value was observed for O=C(Nc1ccc(Cl)c(F)c1)O[C@@H](CN1CCO[C@H](c2ccc(F)c(F)c2)C1)C(F)(F)F [Example 34, hydrochloride] ?
Data returned: 7.42
